Biological target: D(2) dopamine receptor (Homo sapiens, UniProt P14416)
Sequence (P14416 whole entry): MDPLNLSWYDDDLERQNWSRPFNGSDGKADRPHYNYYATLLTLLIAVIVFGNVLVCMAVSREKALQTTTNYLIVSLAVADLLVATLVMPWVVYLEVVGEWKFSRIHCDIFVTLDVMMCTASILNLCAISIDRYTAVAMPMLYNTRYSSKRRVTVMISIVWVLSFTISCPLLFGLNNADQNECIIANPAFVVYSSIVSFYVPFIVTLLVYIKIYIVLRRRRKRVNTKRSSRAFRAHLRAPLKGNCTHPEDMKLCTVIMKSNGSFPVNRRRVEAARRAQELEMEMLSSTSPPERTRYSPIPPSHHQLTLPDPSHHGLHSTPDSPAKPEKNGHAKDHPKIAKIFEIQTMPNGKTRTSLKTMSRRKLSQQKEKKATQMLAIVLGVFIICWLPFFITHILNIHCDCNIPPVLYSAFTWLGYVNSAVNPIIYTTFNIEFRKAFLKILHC
Assay: Binding affinity to human dopamine D2 receptor assessed as inhibition constant
outcome-measure: Ki

-- ask For the compound CCCN1CCN(c2ccc3c(c2)C(N(C)C(=O)OCc2ccccc2)CCC3)CC1 (stereo unspecified) , what Ki is on record?
-- reply > 10 µM

---

Molecular target: Sodium-dependent noradrenaline transporter (Homo sapiens)
Sequence (P23975 whole entry): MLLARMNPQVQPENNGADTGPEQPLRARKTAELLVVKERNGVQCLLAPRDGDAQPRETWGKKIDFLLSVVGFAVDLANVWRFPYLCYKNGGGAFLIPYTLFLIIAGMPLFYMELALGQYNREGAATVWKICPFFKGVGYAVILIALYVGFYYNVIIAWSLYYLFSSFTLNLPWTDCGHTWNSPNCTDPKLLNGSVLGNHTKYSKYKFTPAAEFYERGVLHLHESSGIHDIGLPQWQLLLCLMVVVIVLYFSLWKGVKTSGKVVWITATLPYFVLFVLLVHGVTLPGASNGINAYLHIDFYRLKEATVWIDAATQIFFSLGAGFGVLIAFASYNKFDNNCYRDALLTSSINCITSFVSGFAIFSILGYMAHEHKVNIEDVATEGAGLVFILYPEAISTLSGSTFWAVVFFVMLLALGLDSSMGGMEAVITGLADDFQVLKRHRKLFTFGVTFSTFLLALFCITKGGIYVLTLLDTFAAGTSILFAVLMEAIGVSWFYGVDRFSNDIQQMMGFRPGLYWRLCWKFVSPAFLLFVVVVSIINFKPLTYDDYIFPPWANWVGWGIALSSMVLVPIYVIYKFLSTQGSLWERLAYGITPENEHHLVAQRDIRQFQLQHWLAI
pKi: −log10 of the molar value.
outcome-measure: pKi

-- ask Entry CCCN1CCN(c2ccc3c(c2)C(N(C)C(=O)OCc2ccccc2)CCC3)CC1 (stereo unspecified) has what pKi?
-- reply < 5.00

---

Target: Muscarinic acetylcholine receptor M2 (Homo sapiens)
Sequence (P08172 whole entry): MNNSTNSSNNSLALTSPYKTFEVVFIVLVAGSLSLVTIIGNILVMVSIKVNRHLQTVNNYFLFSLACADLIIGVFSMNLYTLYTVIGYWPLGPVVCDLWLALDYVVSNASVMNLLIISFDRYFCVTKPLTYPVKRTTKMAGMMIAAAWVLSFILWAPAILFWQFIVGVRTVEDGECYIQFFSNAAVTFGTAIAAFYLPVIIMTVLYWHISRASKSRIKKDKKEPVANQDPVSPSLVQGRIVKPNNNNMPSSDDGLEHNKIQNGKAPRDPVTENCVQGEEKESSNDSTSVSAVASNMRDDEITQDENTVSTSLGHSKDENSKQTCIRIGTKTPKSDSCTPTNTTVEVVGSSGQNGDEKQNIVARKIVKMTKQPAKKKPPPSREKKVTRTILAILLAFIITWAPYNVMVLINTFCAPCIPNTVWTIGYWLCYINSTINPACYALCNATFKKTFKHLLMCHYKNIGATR
outcome-measure: Ki

-- ask Please look up its Ki: CCCN1CCN(c2ccc3c(c2)C(N(C)C(=O)OCc2ccccc2)CCC3)CC1 (stereo unspecified)
-- reply > 10 µM

---

Target: Sigma intracellular receptor 2 (Homo sapiens)
Sequence (Q5BJF2 whole entry): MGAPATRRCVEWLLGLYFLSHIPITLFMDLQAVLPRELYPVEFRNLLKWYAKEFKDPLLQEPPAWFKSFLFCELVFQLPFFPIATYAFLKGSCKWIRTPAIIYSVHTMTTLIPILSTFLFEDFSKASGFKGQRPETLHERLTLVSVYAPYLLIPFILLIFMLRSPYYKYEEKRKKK
Test: Displacement of [3H]-ditolylguanidine from human sigma 2 receptor/TMEM97 transfected in HEK293 cells assessed as inhibition constant in the presence of (+)-pentazocine by competition binding assay
Assay type: cell-based
Below, each entry is listed with its recorded log10 of Ki.
Heads up, the numbers here are log10 of Ki in nM units.

Below are worked cases with known answers.
CCCN1CCN(c2ccc3c(c2)C(N(C)C(=O)Cc2ccccc2)CCC3)CC1 (centres undefined) :: 1.72
CCCN1CCN(c2ccc3c(c2)C(N(CCCO)C(=O)OCc2ccccc2)CCC3)CC1 (centres undefined) :: 2.13

-- ask Entry under review: CCCN1CCN(c2ccc3c(c2)C(OCCCc2ccccc2)CCC3)CC1 (centres undefined) . Reported log10 of Ki?
-- reply 1.23

---

Biological target: Sigma non-opioid intracellular receptor 1 (Homo sapiens)
Sequence (Q99720 whole entry): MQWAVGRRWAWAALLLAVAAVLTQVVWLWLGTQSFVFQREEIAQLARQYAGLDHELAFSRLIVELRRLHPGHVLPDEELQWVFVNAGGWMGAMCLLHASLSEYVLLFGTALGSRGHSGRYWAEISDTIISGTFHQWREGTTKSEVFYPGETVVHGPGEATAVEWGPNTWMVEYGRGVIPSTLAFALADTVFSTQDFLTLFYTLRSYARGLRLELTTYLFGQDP
Experiment: Binding affinity to sigma 1 receptor (unknown origin) assessed as inhibition constant
outcome-measure: pKi
API: returns pKi as number; meaning -log10 of concentration in mol/L.

-- ask For Sigma non-opioid intracellular receptor 1 (Homo sapiens), provide pKi of Clc1ccc2c(c1)C1CC2CCCN1CCc1ccccc1 (stereo unspecified) please.
-- reply 6.61

---

Target: Sigma intracellular receptor 2 (Rattus norvegicus, UniProt Q5U3Y7)
Sequence (Q5U3Y7 whole entry): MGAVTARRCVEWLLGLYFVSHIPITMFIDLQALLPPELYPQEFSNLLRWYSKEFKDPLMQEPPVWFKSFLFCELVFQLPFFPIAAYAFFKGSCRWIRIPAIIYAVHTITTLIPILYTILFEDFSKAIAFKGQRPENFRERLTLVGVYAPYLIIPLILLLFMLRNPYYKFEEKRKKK
Assay: Displacement of [3H]-ditolylguanidine from sigma 2 receptor/TMEM97 in rat PC-12 cells assessed as inhibition constant in the presence of (+)-pentazocine by competition binding assay
outcome-measure: log10(Ki) (log10 of the value in µM)
Scale type: logarithmic (base 10). Underlying Ki unit: µM.

Field: example entries. Status: answers known.
CCCN1CCN(c2ccc3c(c2)C(OCc2ccccc2)CCC3)CC1 (stereo not drawn) :: -1.30
CCCN1CCN(c2ccc3c(c2)C(N(CCC)C(=O)OCc2ccccc2)CCC3)CC1 (stereo not drawn) :: -2.03
CCCN1CCN(c2ccc3c(c2)C(N(CCCCCCCCCCCN)C(=O)OCc2ccccc2)CCC3)CC1 (stereo not drawn) :: -1.78
CCCN1CCN(c2ccc3c(c2)C(N(CC)C(=O)OCc2ccccc2)CCC3)CC1 (stereo not drawn) :: -2.34
CCOC(=O)CCN1CCN(c2ccc3c(c2)C(N(C)C(=O)OCc2ccccc2)CCC3)CC1 (stereo not drawn) :: -2.35
CCN(CC)C(=O)CCN1CCN(c2ccc3c(c2)C(N(C)C(=O)OCc2ccccc2)CCC3)CC1 (stereo not drawn) :: -2.14
CN(C(=O)OCc1ccccc1)C1CCCc2ccc(N3CCN(C4CCC4)CC3)cc21 (stereo not drawn) :: -1.92

// next entry
-- ask Form field: reported log10(Ki) of CCCN1CCN(c2cccc3c2CCCC3N(C)C(=O)OCc2ccccc2)CC1 (stereo not drawn)
-- reply -1.59

---

Molecular target: Sigma non-opioid intracellular receptor 1 (Cavia porcellus)
Sequence (Q60492 whole entry): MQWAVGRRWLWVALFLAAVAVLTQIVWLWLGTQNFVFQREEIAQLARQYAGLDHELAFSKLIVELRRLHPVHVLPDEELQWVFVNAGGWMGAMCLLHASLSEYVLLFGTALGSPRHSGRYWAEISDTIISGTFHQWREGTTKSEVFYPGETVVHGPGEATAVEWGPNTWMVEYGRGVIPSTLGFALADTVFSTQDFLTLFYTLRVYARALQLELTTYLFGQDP
Test: Displacement of [3H](+)-pentazocine from sigma 1 receptor in guinea pig brain assessed as inhibition constant by competition binding assay
outcome-measure: pKi
A value of pKi is the negative decimal logarithm of a concentration given in moles per litre.

Solved entries (count: 3):
CCCN1CCN(c2ccc3c(c2)C(N(C)C(=O)OCc2ccccc2)CCC3)CC1 (stereo not given) :: 6.70
CCCN1CCN(c2ccc3c(c2)C(N(CCC)C(=O)OCc2ccccc2)CCC3)CC1 (stereo not given) :: 6.70
CN(C(=O)OCc1ccccc1)C1CCCc2ccc(N3CCN(CCCO)CC3)cc21 (stereo not given) :: 6.32

-- ask # query: pKi | item CCCN1CCN(c2ccc3c(c2)C(OCc2ccccc2)CCC3)CC1 (stereo not given) | system: Sigma non-opioid intracellular receptor 1 (Cavia porcellus)
-- reply 6.98

-- ask Query CC(C)N1CCN(c2ccc3c(c2)C(N(C)C(=O)OCc2ccccc2)CCC3)CC1 (stereo not given) next
-- reply 6.65

---

Target: Sigma intracellular receptor 2 (Homo sapiens)
Test: Displacement of [3H]-ditolylguanidine from human sigma 2 receptor/TMEM97 transfected in HEK293 cells assessed as inhibition constant in the presence of (+)-pentazocine by competition binding assay
Assay type: cell-based
Known Ki of a selection of compounds
Write the number in nM without appending the unit.

COCCN1CCN(c2ccc3c(c2)C(N(C)C(=O)OCc2ccccc2)CCC3)CC1 (stereo unspecified) :: 128
CCCN1CCN(c2ccc3c(c2)C(N(CCC(=O)OCC)C(=O)OCc2ccccc2)CCC3)CC1 (stereo unspecified) :: 35
CCCN1CCN(c2ccc3c(c2)C(OC/C=C/c2ccccc2)CCC3)CC1 (stereo unspecified) :: 15
CCCN1CCN(c2ccc3c(c2)C(N(C)C(=O)/C=C/c2ccccc2)CCC3)CC1 (stereo unspecified) :: 9.6
CCCN1CCN(c2ccc3c(c2)C(N(C)C(=O)CCc2ccccc2)CCC3)CC1 (stereo unspecified) :: 17

-- ask Look up Ki for this compound: CCCN1CCN(c2ccc3c(c2)C(N(C)C(=O)OCc2ccccc2)CCC3)CC1 (stereo unspecified)
-- reply 33
